molecular target: human GAB1 PH domain (Homo sapiens, UniProt Q13480); assay: SPR direct binding to GAB1 PH domain; conditions: GAB1; derived from experimental KD (or Ki)
Sequence (Q13480 5-116 limits assumed): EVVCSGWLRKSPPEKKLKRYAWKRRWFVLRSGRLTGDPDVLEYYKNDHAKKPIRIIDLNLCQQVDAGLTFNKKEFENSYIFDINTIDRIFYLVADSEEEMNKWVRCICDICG
Each entry below carries its reported Exp. ΔGbind.
Reply numerically in kcal/mol, unit not repeated.

O=c1[nH]nc(SCc2csc(-c3ccccc3)n2)n1Cc1ccco1; -7.78
CCCCCCCCCCCCc1ccc(S(=O)(=O)Nc2nnc(CC(=O)OCC)s2)cc1; -8.31

# Exp. ΔGbind of CCCCCCCCCCCCc1ccc(S(=O)(=O)Nc2nnc(C(=O)OCC)s2)cc1 = -8.47

Recorded Exp. ΔGbind (compound CS(=O)(=O)CCSc1ncccc1C(=O)Sc1ccc(Cl)cc1Cl ): -6.01

Kindly note the recorded Exp. ΔGbind for O=S(=O)(NCc1csc2ccc(Cl)cc12)c1cc(S(=O)(=O)c2ccccc2)cs1 , which is -6.91

###

Reported Kd values for the following compounds.
Target: human IRS1 PH domain (Homo sapiens)
Sequence (P35568 12-115 limits assumed): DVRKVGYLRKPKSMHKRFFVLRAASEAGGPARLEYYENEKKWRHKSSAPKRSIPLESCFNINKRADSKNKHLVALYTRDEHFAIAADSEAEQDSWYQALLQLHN
Assay: SPR direct binding to IRS1 PH domain
Conditions: read-out: KD IRS1; SPR, immobilized PH domain GST-fusion; NB = No Binding

O=S(=O)(NCc1csc(-c2cccs2)n1)c1ccc(N2CCOCC2)nc1; 16.2 µM

Turning now to a further record.
Entry O=S(=O)(NCc1csc2ccc(Cl)cc12)c1cc(S(=O)(=O)c2ccccc2)cs1 ; Kd = > 50 µM

###

test system: phospho-Tyr627 GAB1; test: Inhibition of GAB1 Y627 phosphorylation in T47D cells; assay type: cell-based, human; settings: 20 µM, 4 hr, HGF stimulated
assay-endpoint: % pGAB1 inhibition (%)
Write it as a number; the unit % goes unstated.

These recorded examples may help you get a feel for the data.
O=C(O)c1ccccc1C(=O)Nc1ccccc1SCCS(=O)(=O)c1ccc(Cl)cc1 [GAB-012]; 43
O=S(=O)(NCc1csc2ccc(Cl)cc12)c1cc(S(=O)(=O)c2ccccc2)cs1 [GAB-001]; 55
CCCCCCCCCCCCc1ccc(S(=O)(=O)Nc2nnc(S(N)(=O)=O)s2)cc1 [GAB-018]; 71

Cc1noc(C)c1NC(=O)NCc1csc(-c2cccs2)n1 [GAB-009] yielded % pGAB1 inhibition of 38

###

Let's look at some compounds and their measured % pGAB1 inhibition.
system: phospho-Tyr627 GAB1; experiment: Inhibition of GAB1 Y627 phosphorylation in T47D cells; type: cell-based, human; conditions: 20 µM, 4 hr, HGF stimulated
Answer in %, number only, no unit symbol.

Previously resolved entries follow.
COc1cc(NS(=O)(=O)c2ccc(NS(=O)(=O)c3c(C)noc3C)cc2)nc(OC)n1 [GAB-013]; 27
CS(=O)(=NS(=O)(=O)c1ccc(-c2ccccn2)s1)c1ccc(Cl)cc1 (centres unmarked) [GAB-005]; 6

Memo: CCCCCCCCCCCCc1ccc(S(=O)(=O)Nc2nnc(CC(=O)O)s2)cc1 [GAB-015] , reported % pGAB1 inhibition: 77

// % pGAB1 inhibition value for O=c1[nH]nc(SCc2csc(-c3ccccc3)n2)n1Cc1ccco1 [GAB-004] : 81

# compound CCc1ccc(C(=O)OC)cc1CSc1nnc(-c2ccc(C(F)(F)F)cc2)n1Cc1ccoc1 [GAB-019] ; its % pGAB1 inhibition = 91
